# TARGET_DESC: MRP3 (Rattus norvegicus, UniProt O88563)
# Construct: intestinal segments including duodenum, jejunum, ileum, and colon from anesthetized rats were immediately removed by surgery; from tissue; host or cells: stripped rat intestine (jejunum and ileum in validation; jejunum for the emodin studies)
# Sequence (O88563 whole entry): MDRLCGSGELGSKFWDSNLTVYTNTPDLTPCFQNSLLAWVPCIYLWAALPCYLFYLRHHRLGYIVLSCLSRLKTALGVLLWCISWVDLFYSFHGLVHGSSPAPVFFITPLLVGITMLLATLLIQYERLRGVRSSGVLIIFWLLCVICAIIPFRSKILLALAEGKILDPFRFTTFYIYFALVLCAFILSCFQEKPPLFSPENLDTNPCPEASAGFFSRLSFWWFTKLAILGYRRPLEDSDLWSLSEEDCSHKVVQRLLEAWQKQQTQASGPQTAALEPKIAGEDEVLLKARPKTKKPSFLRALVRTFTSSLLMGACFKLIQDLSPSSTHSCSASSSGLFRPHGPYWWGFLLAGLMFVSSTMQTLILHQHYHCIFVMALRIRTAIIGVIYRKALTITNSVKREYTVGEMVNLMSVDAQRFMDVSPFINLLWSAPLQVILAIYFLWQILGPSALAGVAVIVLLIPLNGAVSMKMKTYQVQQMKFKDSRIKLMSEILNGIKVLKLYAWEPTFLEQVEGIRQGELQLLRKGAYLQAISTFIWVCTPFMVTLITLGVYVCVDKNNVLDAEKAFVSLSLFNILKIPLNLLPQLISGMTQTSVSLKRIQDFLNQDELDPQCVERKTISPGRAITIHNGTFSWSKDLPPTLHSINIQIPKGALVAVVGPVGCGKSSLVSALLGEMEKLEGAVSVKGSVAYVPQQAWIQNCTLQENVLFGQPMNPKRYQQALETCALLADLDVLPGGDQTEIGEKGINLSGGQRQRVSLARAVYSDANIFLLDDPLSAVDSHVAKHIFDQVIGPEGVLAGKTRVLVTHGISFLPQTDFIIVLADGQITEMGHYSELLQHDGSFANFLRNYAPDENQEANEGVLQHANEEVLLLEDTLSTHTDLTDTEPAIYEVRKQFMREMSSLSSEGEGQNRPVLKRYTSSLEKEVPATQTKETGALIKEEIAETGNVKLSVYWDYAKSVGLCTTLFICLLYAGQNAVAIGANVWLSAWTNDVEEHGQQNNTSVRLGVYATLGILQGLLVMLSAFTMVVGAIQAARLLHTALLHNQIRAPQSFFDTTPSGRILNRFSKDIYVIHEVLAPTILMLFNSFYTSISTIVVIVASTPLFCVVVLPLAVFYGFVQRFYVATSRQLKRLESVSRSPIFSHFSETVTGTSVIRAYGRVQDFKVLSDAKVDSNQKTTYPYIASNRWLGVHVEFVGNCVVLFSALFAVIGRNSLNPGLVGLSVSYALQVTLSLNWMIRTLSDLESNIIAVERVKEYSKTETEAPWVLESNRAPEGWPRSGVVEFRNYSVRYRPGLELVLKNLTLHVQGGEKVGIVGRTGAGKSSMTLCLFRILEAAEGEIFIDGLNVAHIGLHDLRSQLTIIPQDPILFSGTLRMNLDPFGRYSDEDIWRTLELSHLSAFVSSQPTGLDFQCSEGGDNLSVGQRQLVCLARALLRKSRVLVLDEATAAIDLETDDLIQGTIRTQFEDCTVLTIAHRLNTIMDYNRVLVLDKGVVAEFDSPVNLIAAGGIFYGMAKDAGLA
# EXPERIMENT_SUMMARY: Ussing chamber bidirectional transport, model validation for MRP3 (teniposide substrate, benzbromarone inhibitor)
# Assay type: in vitro ADME
# EXPERIMENTAL_CONDITIONS: rat, pH 6.5, with benzbromarone 470 μM, mucosal side, rat ileum, with benzbromarone 470 μM on mucosal side; read-out: Papp M-S, with inhibitor
RESULT_TYPE: Papp

Papp reported for this compound COc1cc([C@@H]2c3cc4c(cc3[C@@H](O[C@@H]3O[C@@H]5CO[C@@H](c6cccs6)O[C@H]5[C@H](O)[C@H]3O)[C@H]3COC(=O)[C@H]23)OCO4)cc(OC)c1O [Teniposide] : 28 ×10⁻⁶ cm/s

// data source = paper PMC6023986
